# experiment summary: soluble on expression in E. coli; label from the status in PepcDB or PDB records
assay metric: soluble on expression in E. coli

Consider the worked cases shown below.
sequence content	soluble on expression in E. coli
MGSDKIHHHHHHMANSIPSGGNAFALPFAGSRHQFISATCTPDTFSDCLSQSLPPSSNEQAPLGVLRLVVAVSNQKQIGTVLEQLTKDFQALLSRAEVVVQPPFSGQVQISAWLVDTAAIADAPAVIGSPAALQWLFSASNAHALDDTQVSPAFSRQFYDGLESAHAQGHMPDDLLRTWIYIGGITQGPHDETRYQRVNAARQDAFREVSIGMGALCSPFPASTGIGTHGSSLTLGMLSCKIRSGMRVVALENRRQTSAFQYPKEESLIAPLFSRAVAILGDAQAMVFVSGTASIIGAKSVHVGNIEQQTRQTLENINNLLSARLLSDYDCYPATSGLESIVSYTVYIKRREDITVVRAVCAALLPERAVATFVQADVCRTELLVEIEAVAVMPE	not soluble
MLPCLNEEESLPAVLAAIPAGYRALVVDNNSTDDTATVAARHGAQVVVEPRPGYGSAVHAGVLAATTPIVAVIDADGSMDAGDLPKLVAELDKGADLVTGRRRPVAGLHWPWVARVGTVVMSWRLRTRHRLPVHDIAPMRVARREALLDLGVVDRRSGYPLELLVRAAAAGWRVVELDVSYGPRTGGKSKVSGSLRGSIIAILDFWKVISLEHHHHHH	not soluble
MSLGKRLKEARQKAGYTQKEAAEKLNIGNNNLSNYERDYRDPDTDTLLKLSNLYNVSTDYLLGKDEVSKKNETDLLNKTINEAIQELKDEDTLLFMNDGEFDEETARLVKKALKNGIKFIDELKKKE	not soluble
MSLKVLAITGYKPFELGIFKQDDKALYYIKKAIKNRLIAFLDEGLEWILISGQLGVELWAAEAAYDLQEEYPDLKVAVITPFYEQEKNWKEPNKEQYEAVLAQADYEASLTHRPYESPLQFKQKNQFFIDKSDGLLLLYDPEKEGSPKYMLGTAEKRREQDGYPIYFITMDDLRVTVEEDSYEGHHHHHH	soluble
MQTYIETSRLILRDWKEEDIPAFARMNADPHVMEFFLHPLTPEESLAFYHRIQNEFQTCGFGLYAVERKEDHAFMGYTGLHQITFDVDFAPGIEIGWRLAHEYWGRGYAPEAATACLEYARKSLDIKELFSFTSLPNQRSERVMQKIGMERVREFGHPLVPAEHPLHRHVLYYIDLRKHSS	not soluble

Now turn to the next sequence.
Would you mind telling me what soluble on expression in E. coli value was observed for MGSDKIHHHHHHMTNANGNLKKCPITISSYTLGTEVSFPKRVKVAAENGFDGIGLRAENYVDALAAGLTDEDMLRILDEHNMKVTEVEYITQWGTAEDRTAEQQKKEQTTFHMARLFGVKHINCGLLEKIPEEQIIVALGELCDRAEELIIGLEFMPYSGVADLQAAWRVAEACGRDNAQLICDTWHWARANQTAESIKNVPADRIVSIQLCDVHETPYKELREESLHDRLAPGEGYGDTVGFAKILKEHGVNPRVMGVEVISDSMVATGLEYAALKVYNATKKVLDEAWPEISPR ?
soluble
